Entries and their pIC50
- study.target: PPARγ ligand binding domain (LBD) (amino acids 195-475) (Homo sapiens, UniProt P37231)
- Construct: polyHis; made in house; host or cells: Escherichia coli
- Sequence (P37231 195-475 isoform P37231-2): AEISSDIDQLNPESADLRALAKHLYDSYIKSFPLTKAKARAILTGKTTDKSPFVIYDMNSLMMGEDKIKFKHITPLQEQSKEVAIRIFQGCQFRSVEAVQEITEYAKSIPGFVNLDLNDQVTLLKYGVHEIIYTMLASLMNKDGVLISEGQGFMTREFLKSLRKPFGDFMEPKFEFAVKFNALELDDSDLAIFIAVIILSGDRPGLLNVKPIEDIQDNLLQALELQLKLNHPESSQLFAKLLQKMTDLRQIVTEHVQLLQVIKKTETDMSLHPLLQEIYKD
- assay.remarks: PPAR-γ binding assay (spin plate / gel filtration binding assay, displacement of [3H]BRL 49653)
- assay.setup: read-out: IC50 range in the PPAR-γ Binding Assay
pIC50: −log10 of the molar value.

Study these solved cases before continuing.
COc1cccc(Cn2c(C(=O)O)c(-c3ccc(C(C)(C)C)cc3)c3cccc(C(=O)C4CC4)c32)c1; 5.00 to 8.00
CCOc1ccc(-c2c(C(=O)O)n(Cc3ccc(F)cc3)c3ccc(CCOCC4CC4)cc23)cc1; 8.00 to 10.00
COc1cccc(Cn2c(C(=O)O)c(-c3cccc(C(=O)NC4CCCC4)c3)c3ccccc32)c1; 5.00 to 8.00
COc1cccc(Cn2c(C(=O)O)c(-c3ccc(C(C)(C)C)cc3)c3cc(C(=O)C4CC4)ccc32)c1; 5.00 to 8.00

GET /values?readout=pIC50&system=PPARγ ligand binding domain (LBD) (amino acids 195-475) (Homo sapiens, UniProt P37231)&item= `COc1cccc(Cn2c(C(=O)O)c(-c3ccc(C(=O)NC4CCCC4)cc3)c3ccccc32)c1`
5.00 to 8.00

Record lookup: for PPARγ ligand binding domain (LBD) (amino acids 195-475) (Homo sapiens, UniProt P37231), what pIC50 belongs to `COc1cccc(Cn2c(C(=O)O)c(-c3ccc(C(C)(C)C)cc3)c3cc(C4CCCC4)ccc32)c1` ?
8.00 to 10.00

Fill in the recorded pIC50 for this compound, with PPARγ ligand binding domain (LBD) (amino acids 195-475) (Homo sapiens, UniProt P37231) as test system: `COc1cccc(Cn2c(C(=O)O)c(-c3ccc(C(C)(C)C)cc3)c3cc(N(C)C(=O)C4CC4)ccc32)c1`
5.00 to 8.00

Identify the measured pIC50 of `COc1cccc(Cn2c(C(=O)O)c(-c3cccc(C(=O)NC4CC4)c3)c3ccccc32)c1` for PPARγ ligand binding domain (LBD) (amino acids 195-475) (Homo sapiens, UniProt P37231).
5.00 to 8.00

Lookup: pIC50 / PPARγ ligand binding domain (LBD) (amino acids 195-475) (Homo sapiens, UniProt P37231) / `COc1cccc(Cn2c(C(=O)O)c(-c3ccc(OCC(=O)c4ccc(N5CCCC5)cc4)cc3)c3ccccc32)c1`
5.00 to 8.00

Observed pIC50 on PPARγ ligand binding domain (LBD) (amino acids 195-475) (Homo sapiens, UniProt P37231) for `O=C(O)c1c(-c2ccc(OCC3CC3)cc2)c2ccccc2n1Cc1cccc(C(F)(F)F)c1` , please.
8.00 to 10.00

Checklist item: pIC50 tested on PPARγ ligand binding domain (LBD) (amino acids 195-475) (Homo sapiens, UniProt P37231), entry `COc1ccc(-c2c(C(=O)C(F)(F)F)n(Cc3cccc(C(F)(F)F)c3)c3ccccc23)cc1` , value?
5.00 to 8.00

Notebook entry, PPARγ ligand binding domain (LBD) (amino acids 195-475) (Homo sapiens, UniProt P37231) assay: pIC50 of `C=CCOc1ccc2c(c1)c(-c1ccc(OCC3CC3)cc1)c(C(=O)O)n2Cc1cccc(OC)c1` = ?
5.00 to 8.00

# get_value(readout= pIC50, system= PPARγ ligand binding domain (LBD) (amino acids 195-475) (Homo sapiens, UniProt P37231)) for `COc1ccc(-c2c(C(=O)O)n(Cc3cccc(OC)c3)c3ccc(C(C)=O)cc23)cc1`
5.00 to 8.00

Lookup: pIC50 / PPARγ ligand binding domain (LBD) (amino acids 195-475) (Homo sapiens, UniProt P37231) / `O=C(O)c1c(-c2nc3ccccc3o2)c2ccccc2n1Cc1cccc(C(F)(F)F)c1`
5.00 to 8.00

Kindly state the measured pIC50 obtained for `COc1cccc(Cn2c(C(=O)O)c(-c3cccc(OCC4CC4)c3)c3ccccc32)c1` with PPARγ ligand binding domain (LBD) (amino acids 195-475) (Homo sapiens, UniProt P37231).
8.00 to 10.00

Source listed as patent US6787651B2.
